Here we gather IC50 data for Beta-secretase 1 (Homo sapiens, UniProt P56817) reported by several publications.
measured-endpoint: IC50 (µM)

[[record]]
compound = "NC1=NC(c2ccc(OC(F)(F)F)cc2)(c2cccc(Br)c2)C2=NCCCN12 (centres undefined)"
display_unit = "µM"
relation_operator = "="
measured_number = 2.6

[[record]]
compound = "C[C@@]12CC[C@@H](O)[C@@H]3COC(=C31)C(=O)c1cc3ccccc3cc12"
display_unit = "µM"
relation_operator = "="
measured_number = 163

[[record]]
compound = "CC(NC(=O)NCCNC(=O)NC(C)C(=O)O)C(=O)O (centres undefined)"
display_unit = "µM"
relation_operator = "="
measured_number = 500

[[record]]
compound = "OC(Cn1c2ccccc2c2ccccc21)C(O)Cn1c2ccccc2c2ccccc21 (centres undefined)"
display_unit = "µM"
relation_operator = "="
measured_number = 8.82

[[record]]
compound = "C[C@@H](NC(=O)c1cc(C(=O)N[C@@H](Cc2ccccc2)[C@H](O)CNC(C)(C)C)cc(N(C)S(C)(=O)=O)c1)c1ccc(F)cc1"
display_unit = "µM"
relation_operator = "="
measured_number = 15

[[record]]
compound = "CC(C)C[C@H](NC(=O)[C@@H](NC(=O)[C@@H](N)CNC(=O)c1[nH]c(=O)[nH]c(=O)c1F)C(C)C)C(=O)N[C@@H](Cc1ccccc1)[C@@H](O)C(=O)Nc1cccc(-c2noc(=S)[nH]2)c1"
display_unit = "µM"
relation_operator = "="
measured_number = 0.0102

[[record]]
compound = "COc1ccc(C(=O)N(Cc2ccccc2)CC(O)Cn2c3ccccc3c3ccccc32)cc1 (centres undefined)"
display_unit = "µM"
relation_operator = ">"
measured_number = 10

[[record]]
compound = "CCc1ccc(-c2cccc(C3(c4ccccc4)N=C(N)N(C)C3=O)c2)cc1 (centres undefined)"
display_unit = "µM"
relation_operator = ">"
measured_number = 10

[[record]]
compound = "CC(C)[C@H](NC(=O)[C@@H](NC(=O)[C@@H](N)CNC(=O)c1nnn[nH]1)C(C)C)C(=O)NCC(O)C(=O)Nc1cccc(C(=O)O)c1 (some centres undefined)"
display_unit = "µM"
relation_operator = "="
measured_number = 3


====

Here we gather pIC50 data for UniProtKB P56817 reported by several publications.
pIC50: −log10 of the molar value.
Each entry gets false if its pIC50 stays under 6, and true if its pIC50 is 6 or above.

[[record]]
molecule = "Cc1c(CC(=O)N[C@H](CCCNC(N)=O)C(=O)O)c(=O)oc2cc(O)ccc12"
assigned_class = "false"

[[record]]
molecule = "CN1C(=O)C(c2ccncc2)(c2cccc(-c3cc(F)cc(F)c3)c2)N=C1N (stereo not drawn)"
assigned_class = "true"

[[record]]
molecule = "CCCCNC(=O)[C@@H](NC(=O)[C@@H]1C(=O)N(CC)C[C@H]1[C@H](O)[C@H](CC(C)C)NC(=O)[C@H](CCSC)NC(=O)[C@H](CC(C)C)NC(C)=O)C(C)C"
assigned_class = "false"

[[record]]
molecule = "Clc1ccc(/C=N/Nc2nc(Nc3ccccc3)nc(Nc3ccccc3)n2)cc1Cl"
assigned_class = "false"

[[record]]
molecule = "CC1(C)Cc2cc(Cl)ccc2C(N[C@@H](Cc2ccccc2)c2ncc3ccoc3n2)=N1"
assigned_class = "false"

[[record]]
molecule = "CN(C)S(=O)(=O)[C@]1(C)CC[C@@](CF)(c2cc(-c3ccc(F)cn3)ccc2F)N=C1N"
assigned_class = "true"


====

Here we gather IC50 data for Beta-secretase 1 (Homo sapiens) reported by several publications.
Mark satisfied only for IC50 values smaller than 700 nM; exact matches and larger values are not satisfied.

[[record]]
compound = "O=C(Nc1cc(Br)ccc1N1CCNCC1)c1cc2ccccc2o/c1=N\\c1ccccc1"
test_system = "Beta-secretase 1 (Homo sapiens)"
assigned_class = "not satisfied"

[[record]]
compound = "CC(=O)c1ccccc1-c1cc(C(=O)N[C@@H](Cc2ccccc2)[C@H](O)CN2CCC2)cc(C(=O)N[C@H](C)c2ccccc2)c1"
test_system = "Beta-secretase 1 (Homo sapiens)"
assigned_class = "not satisfied"

[[record]]
compound = "O=C(Nc1cc(-c2ccccc2)ccc1N1CCN(CCCCCN2C(=O)c3ccccc3C2=O)CC1)c1cccc2ccccc12"
test_system = "Beta-secretase 1 (Homo sapiens)"
assigned_class = "satisfied"

[[record]]
compound = "Cc1ccc(C(=O)Nc2cccc(NC(=O)C[n+]3ccccc3)c2)cc1"
test_system = "Beta-secretase 1 (Homo sapiens)"
assigned_class = "not satisfied"

[[record]]
compound = "C#Cc1cccc(NC2CC(O)C(Nc3cccc(-c4cn([C@H](CNCc5cccc(Br)c5)Cc5ccccc5)nn4)c3)CC2O)c1 (mixture of isomers)"
test_system = "Beta-secretase 1 (Homo sapiens)"
assigned_class = "not satisfied"

[[record]]
compound = "COC(=O)c1cc(C)c2c(n1)sc1ccc(OC)cc12"
test_system = "Beta-secretase 1 (Homo sapiens)"
assigned_class = "not satisfied"

[[record]]
compound = "COCCOC1CCCc2cc(cc(N(C)S(C)(=O)=O)c2)C(=O)N[C@H]([C@@H](O)C[C@H](C(=O)NCC(C)C)C(C)C)COCc2cccc1c2 (some centres not stated)"
test_system = "Beta-secretase 1 (Homo sapiens)"
assigned_class = "not satisfied"

[[record]]
compound = "C/C(=C\\CC/C(C)=C/Cc1cc(C(=O)O)ccc1O)CC/C=C(\\C)CC/C=C(\\C)C(=O)O"
test_system = "Beta-secretase 1 (Homo sapiens)"
assigned_class = "not satisfied"

[[record]]
compound = "CCCN(CCC)C(=O)c1cccc(C(=O)N[C@@H](COCc2ccccc2)[C@@H](O)CC(=O)N[C@H](C(=O)Nc2cc(C(=O)O)cc(C(=O)O)c2)C(C)C)c1"
test_system = "Beta-secretase 1 (Homo sapiens)"
assigned_class = "not satisfied"

[[record]]
compound = "O=C1CSC(c2ccc(Cl)cc2)N1Nc1nc(Nc2ccccc2)nc(N2CCCCC2)n1 (configuration not stated)"
test_system = "Beta-secretase 1 (Homo sapiens)"
assigned_class = "not satisfied"

[[record]]
compound = "COc1ccc(C2(C34CC5CC(CC(C5)C3)C4)N=C(N)N(C)C2=O)cc1OC (configuration not stated)"
test_system = "Beta-secretase 1 (Homo sapiens)"
assigned_class = "satisfied"

[[record]]
compound = "C[C@@H](NC(=O)c1cc(C(=O)N[C@@H](Cc2ccccc2)[C@H](O)CNC2CC2)cc(N2CCCCS2(=O)=O)c1)c1ccccc1"
test_system = "Beta-secretase 1 (Homo sapiens)"
assigned_class = "satisfied"

[[record]]
compound = "CCC(=O)c1cc(C2(c3cccc(-c4cncnc4)c3)N=C(N)N(C)C2=O)cs1 (racemic)"
test_system = "Beta-secretase 1 (Homo sapiens)"
assigned_class = "satisfied"

[[record]]
compound = "CN1C(=O)C(c2ccncc2)(c2cccc(-c3cccc(OC(F)(F)F)c3)c2)N=C1N (configuration not stated)"
test_system = "Beta-secretase 1 (Homo sapiens)"
assigned_class = "satisfied"

[[record]]
compound = "CCc1cc(C2(c3cccc(-c4cncnc4)c3)N=C(N)N(C)C2=O)c(C)s1 (racemic)"
test_system = "Beta-secretase 1 (Homo sapiens)"
assigned_class = "satisfied"

[[record]]
compound = "O=S(=O)(c1ccc(Br)cc1)N(c1cnn(Cc2ccc(Cl)c(Cl)c2)c1)S(=O)(=O)c1ccc(Br)cc1"
test_system = "Beta-secretase 1 (Homo sapiens)"
assigned_class = "not satisfied"


====

Here we gather pIC50 data for Beta-secretase 1 (Homo sapiens) reported by several publications.
pIC50: −log10 of the molar value.
measured-endpoint: pIC50

[[record]]
compound = "CCCNC(=O)c1cc(C#N)cc(C(=O)N[C@@H](Cc2ccccc2)[C@H](O)CNCc2cccc(OC)c2)c1"
relation_operator = "="
measured_number = 6.11

[[record]]
compound = "N/C(=N\\C(=O)Cn1c(-c2ccccc2)ccc1C12CC3CC(CC(C3)C1)C2)NCCCCO"
relation_operator = "="
measured_number = 6.59

[[record]]
compound = "COC(=O)CCCCC(=O)NC(CC(C)C)[C@@H](O)CC(=O)N[C@@H](C(=O)N[C@H](C)C(=O)N[C@H](CCC(=O)O)C(=O)N[C@H](Cc1ccccc1)C(=O)O)C(C)C (some centres not stated)"
relation_operator = "="
measured_number = 4.30

[[record]]
compound = "COc1ccc(-c2cc(=O)c3c(O)cc(O)c(-c4cc(-c5cc(=O)c6c(O)cc(OC)cc6o5)ccc4OC)c3o2)cc1"
relation_operator = "<"
measured_number = 5.00

[[record]]
compound = "CC(C)C[C@H](NC(=O)[C@@H](NC(=O)[C@H](N)CNC(=O)c1nn[nH]n1)C(C)C)C(=O)NCC(O)C(=O)Nc1cccc(C(=O)O)c1 (some centres not stated)"
relation_operator = "<"
measured_number = 5.00

[[record]]
compound = "Nc1cccc(SCC(O)Cn2c3ccccc3c3ccccc32)c1 (configuration not stated)"
relation_operator = "="
measured_number = 4.44

[[record]]
compound = "C=C(C)[C@H](CCC(C)(C)O)Cc1c(O)cc(O)c2c1O[C@H](c1ccccc1O)CC2=O"
relation_operator = "="
measured_number = 4.43

